Reference source for all entries: ChEMBL document CHEMBL1201862

# Test system: SF-295
# protocolDescription: NCI tumour cell line growth inhibition, 48 h
Active and inactive are the calls of the source. Rule as the data show it: active = GI50 up to about 1.1 µM and inactive = higher.
recordedEndpoint: GI50

[
  {
    "compound": "CS(=O)(=O)N1CC(CCl)c2ccc(O)cc21 (configuration not stated)",
    "reportedMeasurement": "2.95 µM (inactive)"
  }
]

Inquiry: Please give the measured GI50 for this compound: Cc1ccc(S(=O)(=O)N2CCSCCN(S(=O)(=O)c3ccc(C)cc3)CCN(S(=O)(=O)c3ccc(C)cc3)CC2)cc1
Reply text: 26.4 µM (inactive)

Inquiry: If you can, please state the reported GI50 value of CCC1(C(=O)OC(C)(C)C)OC12C(C)CCCC2C (configuration not stated) .
Reply text: 38.4 µM (inactive)

Inquiry: Requested read-out: GI50. Entry: COc1ccc(/C=N/n2cnc3c(c2=O)S/C(=C2/SC(=S)N(c4ccc(C)cc4)C2=O)N3c2ccccc2)cc1
Reply text: 11.6 µM (inactive)

Inquiry: Endpoint output: GI50 of CCOC(=O)N1C2C=C(C)C(C3C(C)C(=O)N31)N(C(=O)c1ccccc1)O2 (configuration not stated) . Value?
Reply text: > 100 µM (inactive)

Inquiry: Give its GI50 value. Item: O=C1Nc2ccc(Br)cc2/C1=N/NC(=S)Nc1ccc(F)cc1
Reply text: 3.69 µM (inactive)

Inquiry: Given O=C(NC(N1CCN(c2cc3c(cc2F)c(=O)c(C(=O)O)cn3C2CC2)CC1)(C(F)(F)F)C(F)(F)F)c1ccccc1 , state its recorded GI50.
Reply text: 40.6 µM (inactive)

====

# System: A549
# protocolDescription: NCI tumour cell line growth inhibition, 48 h
Active and inactive are the calls of the source. Cut-off read from the data, not from the text of the source: active = GI50 up to about 1.1 µM and inactive = higher.
This listing pairs compounds with measured GI50.

These solved cases illustrate the format of a correct answer.
[
  {
    "compound": "COc1cc([N+](=O)[O-])c(S(=O)(=O)O)cc1-n1nc(-c2ccccc2)n[n+]1-c1cc(S(=O)(=O)[O-])c([N+](=O)[O-])cc1OC",
    "GI50": "> 100 µM (inactive)"
  },
  {
    "compound": "Brc1ccc2c(C3CN[C@@H](c4c[nH]c5cc(Br)ccc45)CN3)c[nH]c2c1 (stereo partly drawn)",
    "GI50": "2.8 µM (inactive)"
  }
]

As a next step, examine the compound that follows.
Inquiry: # query: GI50 of entry CC(C)NC(=O)OCc1c(COC(=O)NC(C)C)n(C)c2c1ccc1sccc12
Reply text: > 36.6 µM (inactive)

====

# System: MOLT-4
# protocolDescription: NCI tumour cell line growth inhibition, 48 h
Active and inactive are the calls of the source. Cut-off read from the data, not from the text of the source: active = GI50 up to about 1.1 µM and inactive = higher.
# output must be one of active, inactive

Worked examples follow.
[
  {
    "compound": "C[C@]12CC[C@H]3[C@@H](CC[C@]4(O)C[C@@H](O)CC[C@]34/C=N/O)[C@@]1(O)CC[C@@H]2C1=COC(=O)C1",
    "label": "active"
  },
  {
    "compound": "C=C1C(=O)C23C(O)CC4C5(C)CCCC4(C(O)OC5)C2C(OC(C)=O)CC1C3O (centres undefined)",
    "label": "inactive"
  },
  {
    "compound": "CC(=O)N/C=C/c1cc(O)ccc1O",
    "label": "inactive"
  },
  {
    "compound": "Clc1ccc2c(NCCCCN3OC3c3ccccc3)ccnc2c1 (centres undefined)",
    "label": "inactive"
  },
  {
    "compound": "Cc1ccc2c(c1)[n+]([O-])c(N)n[n+]2[O-]",
    "label": "inactive"
  }
]

Inquiry: Hi, do you know how O=C1C(c2ccc([N+](=O)[O-])cc2)=C(Cl)C(=O)c2c(O)cccc21 came out in this test?
Reply text: inactive

====

# Test system: NCI-H522
# protocolDescription: NCI tumour cell line growth inhibition, 48 h
Active and inactive are the calls of the source. Cut-off read from the data, not from the text of the source: active = GI50 up to about 1.1 µM and inactive = higher.
Reply using exactly one outcome from t = active, f = inactive

[
  {
    "molecule": "NC(=O)/C=C/NC(=O)/C=N\\O",
    "systemTested": "NCI-H522",
    "label": "f"
  }
]

Inquiry: Please let me know the test result on file for NCCCCC(NC(=O)C(N)Cc1ccc(O)cn1)C(=O)O (stereo not drawn) .
Reply text: f

Inquiry: Outcome logged for Cc1ccc2c(c1)C(=O)C1(C2)Cc2cccc(C)c2C1=O (stereo not drawn) in this assay:
Reply text: f

Inquiry: Assay outcome for c1cc2c(c(NC3=NCCO3)c1)CCC2 : what was it?
Reply text: f

Inquiry: Tell me the assay call for O=C1C(NCCc2ccc(O)c([N+](=O)[O-])c2)=CC(=O)c2[nH]cnc21 please.
Reply text: f

====

# Tested on: HCC 2998
# protocolDescription: NCI tumour cell line growth inhibition, 48 h
Active and inactive are the calls of the source. Rule as the data show it: active = GI50 up to about 1.1 µM and inactive = higher.
Outcomes you can answer with include only these: active, inactive

[
  {
    "compound": "COC(=O)[C@]1(C)CCC[C@]2(C)[C@@H](CCC(=O)C(C)C)[C@]3(C=O)O[C@@H]3C[C@H]21",
    "label": "inactive"
  }
]

Inquiry: Tell me the assay call for CN(C)CCn1c(=O)c2ccc3c4c(nn3CCN(C)C)c3cc(N)ccc3n(c1=O)c24 please.
Reply text: active

Inquiry: Name the outcome recorded for CC1OC2OC3C(OCC(O)C3O)OC(=O)[C@]34CCC(C)(C)CC3C3=CCC5[C@@]6(C)C[C@H](O)[C@H](OC7OC(CO)C(O)C(O)C7OC7OCC(OC(=O)CC(C)(O)CC(=O)OC1C(O)C2O)C(O)C7O)[C@@](C)(CO)C6CC[C@@]5(C)[C@]3(C)CC4 (stereo partly drawn) in the assay.
Reply text: inactive

Inquiry: Lab log entry: CCc1nc2c([nH]1)C(=O)c1ccccc1C2=O — outcome as called in the assay?
Reply text: inactive

Inquiry: GET /call?item= C=C1C(=O)C23C(O)CC4C5(C)CCCC4(C(O)OC5)C2C(OC(C)=O)CC1C3O (stereo not drawn) returns the recorded outcome of this test.
Reply text: inactive

Inquiry: I would be grateful if you could indicate the recorded call for O=C1Nc2c(Cl)cc(Cl)cc2/C1=N/NC(=O)c1ccncc1 .
Reply text: inactive

Inquiry: Give the logged outcome of this assay for the following compound: COC(=O)CCC(=O)NC1C2CC3CC(C2)CC1C3 (stereo not drawn)
Reply text: inactive

Inquiry: Please indicate how the test categorized Cc1ccc(C(=O)CC2(O)C(=O)Nc3c(C)cc(Cl)cc32)cc1 (stereo not drawn) .
Reply text: inactive

====

# Tested on: MOLT-4
# protocolDescription: NCI tumour cell line growth inhibition, 48 h
Active and inactive are the calls of the source. No stated cut-off is given here; in the data, active = GI50 up to about 1.1 µM and inactive = higher.
recordedEndpoint: GI50

Worked cases, GI50 given:
[
  {
    "molecule": "Clc1ccc(-c2nnc3c4nnc(-c5ccc(Cl)cc5Cl)n4c4ccccc4n23)c(Cl)c1",
    "GI50": "> 100 µM (inactive)"
  },
  {
    "molecule": "O=C1Nc2c(Cl)cc(Cl)cc2/C1=N/NC(=O)c1ccncc1",
    "GI50": "25.2 µM (inactive)"
  },
  {
    "molecule": "CC(=O)NCCC1CN(C(=O)/C=C\\C#C[Si](C)(C)C)c2ccccc21 (stereo not drawn)",
    "GI50": "17.3 µM (inactive)"
  },
  {
    "molecule": "CSC1=NS(=O)(=O)c2cc(C(=O)NN(C)C(=O)c3cc4c(cc3Cl)SC(SC)=NS4(=O)=O)c(Cl)cc2S1",
    "GI50": "> 10 µM (inactive)"
  },
  {
    "molecule": "CN(C)CCNC(=O)c1cccc2c(NCC(=O)O)c3ccccc3nc12",
    "GI50": "4.08 µM (inactive)"
  },
  {
    "molecule": "C[n+]1c2ccccc2c(NC(CCC(N)=O)C(=O)O)c2ccccc21 (stereo not drawn)",
    "GI50": "> 100 µM (inactive)"
  },
  {
    "molecule": "C/C(CC(=O)Nc1ccc(NC(=O)/C(C)=N/NS(=O)(=O)c2ccc(C)cc2)cc1)=N\\NS(=O)(=O)c1ccc(C)cc1",
    "GI50": "> 100 µM (inactive)"
  },
  {
    "molecule": "ClCCCN(CCCCl)c1ccc(/C=N/c2cccc(Cl)c2)cc1",
    "GI50": "14.4 µM (inactive)"
  },
  {
    "molecule": "C#C/C=C\\CCCC/C=C\\C#CC#CCCCC#CC#C[C@H](COS(=O)(=O)O)OS(=O)(=O)O",
    "GI50": "> 100 µM (inactive)"
  },
  {
    "molecule": "CCCCN1C(=O)CS/C1=N/Nc1nc2c([nH]1)c(=O)n(C)c(=O)n2C",
    "GI50": "21.8 µM (inactive)"
  }
]

Inquiry: // lookup GI50 for CS(=O)(=O)N1CC(CCl)c2ccc(O)cc21 (stereo not drawn)
Reply text: 2.09 µM (inactive)

Inquiry: # query: GI50 of entry COCn1c(C)c(C)c2c(=O)oc(C)nc21
Reply text: > 100 µM (inactive)

Inquiry: So what's the measured GI50 for this one? O=C(OCC1CCCN2CCCCC12)c1cccnc1 (stereo not drawn)
Reply text: > 100 µM (inactive)
